PROTOCOL: In vitro cytotoxicity assay (CytoTox-Glo) on BHK-F-Rep cells
Type: cell-based, hamster
STATED CONDITIONS: hamster
Counter-ions that a name gives are not always drawn.
QUANTITY KIND: CC50 (µM)
Answers are plain numbers, in µM.

CCC(CC)COC(=O)[C@H](C)N[P@](=O)(OC[C@H]1O[C@@](C#N)(c2ccc3c(N)ncnn23)[C@H](O)[C@@H]1O)Oc1ccccc1    99.1

// returns reported CC50 for input CCN(CC)Cc1cc(Nc2ccnc3cc(Cl)ccc23)ccc1O [Amodiaquine, Amodiaquine dihydrochloride]
47.2

----------
PROTOCOL: Cell viability testing in recFCoV-GFP infected Fcwf-4 cells
Format: cell-based
STATED CONDITIONS: cat (Felis catus)
QUANTITY KIND: CC50 at 48 h

What does the record list as CC50 at 48 h for CCC(CC)COC(=O)[C@H](C)N[P@](=O)(OC[C@H]1O[C@@](C#N)(c2ccc3c(N)ncnn23)[C@H](O)[C@@H]1O)Oc1ccccc1 ?
> 200 µM
